# system.under.test: anti-H3K9me3 antibody ab8898
# test.name: peptide microarray binding signal (635 nm), min-max normalized on array (fraction of array maximum); higher = stronger binding
# experimental.conditions: peptide region: Unmod H4 variant; binder concentration: 1:2,000 dilution
Item-by-item account of peptide microarray binding signal
observed.property: peptide microarray binding signal

>  <binder>
TYTEHAKRKTVTA [Unmod H4 variant T Y T E H A K R K T V T A]

>  <readout.value>
0.00104

$$$$
>  <binder>
SGRGKGGKGLGKG [Unmod H4 variant S G R G K G G K G L G K G]

>  <readout.value>
0.000438

$$$$
>  <binder>
GKGGAKRHRKVLR [Unmod H4 variant G K G G A K R H R K V L R]

>  <readout.value>
0.000302

$$$$
>  <binder>
ISGLIYEETRGVL [Unmod H4 variant I S G L I Y E E T R G V L]

>  <readout.value>
0.000423

$$$$
>  <binder>
IRDAVTYTEHAKR [Unmod H4 variant I R D A V T Y T E H A K R]

>  <readout.value>
0.00497

$$$$
>  <binder>
GGKGLGKGGAKRH [Unmod H4 variant G G K G L G K G G A K R H]

>  <readout.value>
0.000378

$$$$
>  <binder>
AKRKTVTAMDVVY [Unmod H4 variant A K R K T V T A M D V V Y]

>  <readout.value>
0.000604

$$$$
>  <binder>
GVLKVFLENVIRD [Unmod H4 variant G V L K V F L E N V I R D]

>  <readout.value>
0.00125

$$$$
